These molecules were tested on F1F0-ATPase (Bos taurus, UniProt P13621); IC50 is the recorded read-out.

In the examples that follow, each entry is paired with its recorded IC50.
query: Requested read-out IC50, target or system F1F0-ATPase (Bos taurus, UniProt P13621), entry CC(C)N/C(=N/C(=O)c1cn(C)nc1C(F)(F)F)Nc1cc(-c2ccc(O)c(F)c2)n[nH]1
result: 5 to 16 µM

query: Requested read-out IC50, target or system F1F0-ATPase (Bos taurus, UniProt P13621), entry Cn1cc(C(=O)/N=C(/Nc2cc(F)cc(Cl)c2)Nc2cc(-c3ccc(O)c(F)c3)n[nH]2)c(C(F)(F)F)n1
result: < 5 µM

query: Requested read-out IC50, target or system F1F0-ATPase (Bos taurus, UniProt P13621), entry Cn1cc(C(=O)/N=C(/Nc2ccc(C(C)(C)C)cc2)Nc2cc(-c3ccc(O)c(F)c3)n[nH]2)c(C(F)(F)F)n1
result: < 5 µM

query: Requested read-out IC50, target or system F1F0-ATPase (Bos taurus, UniProt P13621), entry Cn1cc(C(=O)/N=C(/Nc2cccc(O)c2)Nc2cc(-c3ccc(O)c(F)c3)n[nH]2)c(C(F)(F)F)n1
result: 5 to 16 µM

query: Requested read-out IC50, target or system F1F0-ATPase (Bos taurus, UniProt P13621), entry Cn1cc(C(=O)/N=C(\Nc2cc(-c3ccc(O)c(F)c3)n[nH]2)Nc2ccc(F)cc2Cl)c(C(F)(F)F)n1
result: < 5 µM

query: Requested read-out IC50, target or system F1F0-ATPase (Bos taurus, UniProt P13621), entry COc1ccc(-c2cc(N/C(=N\C(=O)c3cn(C)nc3C(F)(F)F)NC3CCCC3)n[nH]2)cc1F
result: 5 to 16 µM

Next:
query: Requested read-out IC50, target or system F1F0-ATPase (Bos taurus, UniProt P13621), entry CCCn1ccc(C(=O)N=C(Nc2cc(-c3ccc(F)cc3)n[nH]2)NC(C)C)n1
result: 5 to 16 µM

query: Requested read-out IC50, target or system F1F0-ATPase (Bos taurus, UniProt P13621), entry Cn1cc(C(=O)/N=C(\Nc2n[nH]c3cncc(F)c23)NC(C)(C)C)c(C(F)(F)F)n1
result: 5 to 16 µM

query: Requested read-out IC50, target or system F1F0-ATPase (Bos taurus, UniProt P13621), entry CC(C)c1cc(C(=O)/N=C(\Nc2cc(-c3ccc(F)cc3)n[nH]2)NC(C)(C)C)on1
result: < 5 µM

query: Requested read-out IC50, target or system F1F0-ATPase (Bos taurus, UniProt P13621), entry CCn1nc(C)cc1C(=O)N=C(Nc1cc(-c2ccc(F)cc2)n[nH]1)NC(C)COC (stereo not shown)
result: 5 to 16 µM

query: Requested read-out IC50, target or system F1F0-ATPase (Bos taurus, UniProt P13621), entry Cc1oncc1C(=O)/N=C(/NCCCOC(C)C)Nc1cc(-c2cc(F)cc(Cl)c2)[nH]n1
result: > 16 µM

query: Requested read-out IC50, target or system F1F0-ATPase (Bos taurus, UniProt P13621), entry COC[C@H](C)N/C(=N/C(=O)c1cc(C)on1)Nc1cc(-c2ccc(F)cc2)n[nH]1
result: > 16 µM

query: Requested read-out IC50, target or system F1F0-ATPase (Bos taurus, UniProt P13621), entry Cn1cc(C(=O)/N=C(/NCC(C)(C)C)Nc2n[nH]c3cncc(F)c23)c(C(F)(F)F)n1
result: 5 to 16 µM

----------
pIC50: −log10 of the molar value.
These compounds were tested on F1F0-ATPase (Bos taurus, UniProt P13621); pIC50 is the recorded read-out.

In the examples that follow, each entry is paired with its recorded pIC50.
query: Requested read-out pIC50, target or system F1F0-ATPase (Bos taurus, UniProt P13621), entry COc1ccc(-c2cc(N/C(=N\C(=O)c3cn(C)nc3C(F)(F)F)Nc3cc(F)cc(Cl)c3)n[nH]2)cc1F
result: > 5.30

query: Requested read-out pIC50, target or system F1F0-ATPase (Bos taurus, UniProt P13621), entry CSc1ccc(N/C(=N\C(=O)c2cn(C)nc2C(F)(F)F)Nc2cc(-c3ccc(O)cc3F)n[nH]2)cc1
result: 4.80 to 5.30

query: Requested read-out pIC50, target or system F1F0-ATPase (Bos taurus, UniProt P13621), entry CC(C)(C)N/C(=N/C(=O)c1nccs1)Nc1cc(C(F)(F)F)n[nH]1
result: > 5.30

query: Requested read-out pIC50, target or system F1F0-ATPase (Bos taurus, UniProt P13621), entry Cc1cc(C(=O)/N=C(\Nc2cc(-c3ccc(F)cc3)n[nH]2)NC(C)(C)C)c(C)o1
result: > 5.30

query: Requested read-out pIC50, target or system F1F0-ATPase (Bos taurus, UniProt P13621), entry Cc1cc(C(=O)/N=C(\Nc2ccc(C(F)(F)F)nc2)Nc2cccc(Cl)c2)n(C)n1
result: > 5.30

We next turn to a different compound, shown below.
query: Requested read-out pIC50, target or system F1F0-ATPase (Bos taurus, UniProt P13621), entry Cc1nc(C(=O)/N=C(/NCC(C)C)Nc2cc(-c3ccc(F)cc3)n[nH]2)c(C)o1
result: 4.80 to 5.30

----------
Here, each record is paired with measured IC50 data.
Molecular target: F1F0-ATPase (Bos taurus, UniProt P13621)

query: Requested read-out IC50, target or system F1F0-ATPase (Bos taurus, UniProt P13621), entry CC(C)(C)N/C(=N/C(=O)c1ccc(Cl)s1)Nc1cc(C(F)(F)F)n[nH]1
result: < 5 µM

query: Requested read-out IC50, target or system F1F0-ATPase (Bos taurus, UniProt P13621), entry Cc1cc(N/C(=N\C(=O)c2cc(C)oc2C(F)(F)F)NCC(C)(C)C)n[nH]1
result: 5 to 16 µM

query: Requested read-out IC50, target or system F1F0-ATPase (Bos taurus, UniProt P13621), entry Cn1cc(C(=O)/N=C(\Nc2cc(-c3ccc(O)c(F)c3)n[nH]2)Nc2ccc(F)c(O)c2F)c(C(F)(F)F)n1
result: 5 to 16 µM

query: Requested read-out IC50, target or system F1F0-ATPase (Bos taurus, UniProt P13621), entry Cn1cc(C(=O)N=C(Nc2cc(-c3ccc(O)cc3F)n[nH]2)Nc2ccc(F)cc2F)c(C(F)(F)F)n1
result: 5 to 16 µM

query: Requested read-out IC50, target or system F1F0-ATPase (Bos taurus, UniProt P13621), entry CC(C)N/C(=N/C(=O)c1ccn(C(C)C)n1)Nc1cc(-c2ccc(F)cc2)n[nH]1
result: 5 to 16 µM

query: Requested read-out IC50, target or system F1F0-ATPase (Bos taurus, UniProt P13621), entry Cc1cc(C(=O)/N=C(\Nc2cc(-c3ccc(Cl)cc3)n[nH]2)NC(C)(C)C)n(C)n1
result: < 5 µM

query: Requested read-out IC50, target or system F1F0-ATPase (Bos taurus, UniProt P13621), entry CCOCCCN/C(=N/C(=O)c1cnoc1C)Nc1cc(-c2ccc(C)c(F)c2)n[nH]1
result: 5 to 16 µM

query: Requested read-out IC50, target or system F1F0-ATPase (Bos taurus, UniProt P13621), entry COc1ccc(-c2cc(NC(=NC(=O)c3cn(C)nc3C(F)(F)F)NCC(C)(C)C)[nH]n2)cc1F
result: < 5 µM

Next:
query: Requested read-out IC50, target or system F1F0-ATPase (Bos taurus, UniProt P13621), entry COc1ccc(-c2cc(N/C(=N\C(=O)c3cn(C)nc3C(F)(F)F)Nc3ccccc3C(F)(F)F)[nH]n2)cc1F
result: 5 to 16 µM

query: Requested read-out IC50, target or system F1F0-ATPase (Bos taurus, UniProt P13621), entry Cc1oncc1C(=O)/N=C(\Nc1cc(-c2cc(F)cc(Cl)c2)n[nH]1)NC1CCC1
result: < 5 µM

query: Requested read-out IC50, target or system F1F0-ATPase (Bos taurus, UniProt P13621), entry Cc1nnsc1C(=O)/N=C(/NCC(C)C)Nc1cc(-c2ccc(F)cc2)[nH]n1
result: > 16 µM

----------
Here, each record is paired with measured pIC50 data.
Biological target: F1F0-ATPase (Bos taurus)
Construct: from tissue
Assay: Inhibition of F1F0-ATPase activity in synthesizing ATP (ATP synthesis inhibition)
Type: biochemical
Details: detection limit IC50=16 μM, read-out: ATP Syn IC50
pIC50: −log10 of the molar value.

In the examples that follow, each entry is paired with its recorded pIC50.
query: Quick check: pIC50 of CCC(C)N/C(=N/C(=O)c1nc(C)oc1C)Nc1cc(-c2ccc(F)cc2)n[nH]1 (stereo not shown) [Compound A-196] ?
result: 4.80 to 5.30

query: Quick check: pIC50 of Cc1oncc1C(=O)/N=C(/NCC(C)C)Nc1cc(-c2cc(F)cc(F)c2)n[nH]1 [Compound A-79] ?
result: < 4.80

query: Quick check: pIC50 of Cn1cc(C(=O)/N=C(\Nc2cc(-c3cc(O)ccc3F)n[nH]2)NC(C)(C)C)c(C(F)(F)F)n1 [Compound A-178] ?
result: 4.80 to 5.30

We next turn to a different compound, shown below.
query: Quick check: pIC50 of Cc1cc(N/C(=N\C(=O)c2cc(C)oc2C(F)(F)F)NC(C)(C)C)[nH]n1 [Compound A-107] ?
result: < 4.80
